Target: OCTN2 (organic cation/carnitine transporter 2) (Homo sapiens, UniProt O76082)
Assay: in vitro
Details: HEK293 cells that express OCTN2, probe Carnitine
Description: TP_TRANSPORTER: inhibition of Carnitine uptake (Carnitine: 0.010? uM, Clonidine: 500 uM) in OCTN2-expressing HEK293 cells
experimental_readout: activity at 500 µM
Answer format: number, then unit.

Measured activity at 500 µM for this entry Clc1cccc(Cl)c1N=C1NCCN1 on OCTN2 (organic cation/carnitine transporter 2) (Homo sapiens, UniProt O76082): 67.6%

---

Biological target: Organic cation/carnitine transporter 2 (Homo sapiens)
Sequence (O76082 whole entry): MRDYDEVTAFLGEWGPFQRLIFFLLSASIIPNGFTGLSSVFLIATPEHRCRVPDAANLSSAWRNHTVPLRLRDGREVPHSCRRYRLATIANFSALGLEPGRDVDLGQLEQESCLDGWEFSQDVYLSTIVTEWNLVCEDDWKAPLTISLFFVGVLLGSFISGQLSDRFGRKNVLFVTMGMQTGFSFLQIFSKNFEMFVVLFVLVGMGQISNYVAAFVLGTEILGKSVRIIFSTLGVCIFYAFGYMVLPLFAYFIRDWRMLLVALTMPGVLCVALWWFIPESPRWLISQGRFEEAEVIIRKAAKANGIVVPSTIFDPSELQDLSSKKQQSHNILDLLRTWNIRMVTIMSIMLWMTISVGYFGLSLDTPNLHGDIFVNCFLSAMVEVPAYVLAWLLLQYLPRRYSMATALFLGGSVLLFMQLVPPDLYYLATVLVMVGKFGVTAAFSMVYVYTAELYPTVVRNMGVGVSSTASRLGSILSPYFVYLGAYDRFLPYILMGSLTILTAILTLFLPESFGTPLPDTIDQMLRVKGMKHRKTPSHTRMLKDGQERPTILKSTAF
Test: TP_TRANSPORTER: uptake in OCTN2-expressing HEK293 cells
Format: functional, cell-based
Starred links: 1 amine or outer side, 2 acyl side, 3 side chain; linkers in the order of their positions; H or OH if unused. Positions of bridges follow the written chain, without caps; N, C: chain ends. Non-standard residues stand in square brackets, D forms with d. Residues, ends and D or L forms follow the SMILES beside them. Chains are numbered I, II in the order given. Actinocin(9to1) = Cc1c2oc3c(C)ccc(C(=O)[*:1])c3nc-2c(C(=O)[*:2])c(N)c1=O; NMeV = CN[C@H](C(=O)O)C(C)C; Sar = CNCC(=O)O
experimental_readout: Activity

Past entries and their recorded results:
Record Nc1ccc(C(=O)NCC(=O)O)cc1 , field Activity: is not a substrate [-]

What the record says about N=C(N)N : Activity is is not a substrate [-]

# compound COc1ccc(CN(CCN(C)C)c2ccccn2)cc1 ; its Activity = substrate [+]

Activity reading for Cc1c2oc3c(C)ccc(C(=O)N[C@@H]4C(=O)N[C@H](C(C)C)C(=O)N5CCC[C@H]5C(=O)N(C)CC(=O)N(C)[C@@H](C(C)C)C(=O)O[C@@H]4C)c3nc-2c(C(=O)N[C@@H]2C(=O)N[C@H](C(C)C)C(=O)N3CCC[C@H]3C(=O)N(C)CC(=O)N(C)[C@@H](C(C)C)C(=O)O[C@@H]2C)c(N)c1=O [DACTINOMYCIN] (I: T[dV]P[Sar][NMeV] / II: T[dV]P[Sar][NMeV]; ester I:1-I:C, II:1-II:C; linker I:N-II:N via Actinocin(9to1)) : is not a substrate [-]

// next item, Activity requested
Activity measured on CCCC(CCC)C(=O)O = substrate [+]

---

Target: OCTN2 (organic cation/carnitine transporter 2) (Homo sapiens)
Assay: TP_TRANSPORTER: inhibition of Carnitine uptake (Carnitine: 0.010? uM, Probenecid: 500 uM) in OCTN2-expressing HEK293 cells
Format: functional, cell-based
Parameters: scale not given: the % may be the effect or the level left
Conditions: HEK293 cells that express OCTN2, probe Carnitine, read-out: Activity
experimental_readout: activity at 500 µM (%)
Write it as a number; the unit % goes unstated.

Entry CCCN(CCC)S(=O)(=O)c1ccc(C(=O)O)cc1 [PROBENECID] , activity at 500 µM reported as 77.4

---

Target: OCTN2 (organic cation/carnitine transporter 2) (Homo sapiens, UniProt O76082)
Assay: TP_TRANSPORTER: inhibition of Carnitine uptake (Carnitine: 0.010? uM, OFLX: 500 uM) in OCTN2-expressing HEK293 cells
Assay type: functional, cell-based
Set-up: scale not given: the % may be the effect or the level left
Conditions: HEK293 cells that express OCTN2, probe Carnitine, read-out: Activity
experimental_readout: activity at 500 µM (%)
Your answer is read as %, so omit the unit and give the number.

The molecule identified as CC1COc2c(N3CCN(C)CC3)c(F)cc3c(=O)c(C(=O)O)cn1c23 (stereo unspecified) registered its activity at 500 µM at 76.8

---

Target: OCTN2 (organic cation/carnitine transporter 2) (Homo sapiens)
Assay: TP_TRANSPORTER: inhibition of Carnitine uptake (Carnitine: 0.010? uM, Quinine: 500 uM) in OCTN2-expressing HEK293 cells
Assay type: functional, cell-based
Set-up: scale not given: the % may be the effect or the level left
Settings: HEK293 cells that express OCTN2, probe Carnitine, read-out: Activity
experimental_readout: activity at 500 µM (%)
Respond numerically; units are % and should not be typed.

Hey, OCTN2 (organic cation/carnitine transporter 2) (Homo sapiens) data for C=C[C@H]1C[N@@]2CC[C@H]1C[C@H]2[C@H](O)c1ccnc2ccc(OC)cc12 [QUININE] : activity at 500 µM came out at 7.1

---

Biological target: OCTN2 (organic cation/carnitine transporter 2) (Homo sapiens)
Experiment: in vitro
Details: HEK293 cells that express OCTN2, probe Carnitine
Description: TP_TRANSPORTER: inhibition of Carnitine uptake (Carnitine: 0.010? uM, Nicotine: 500 uM) in OCTN2-expressing HEK293 cells
experimental_readout: activity at 500 µM (%)
// units = %; emit number, no label

Briefly, activity at 500 µM measured for CN1CCC[C@H]1c1cccnc1 [NICOTINE] : 82.6

---

Target: OCTN2 (organic cation/carnitine transporter 2) (Homo sapiens)
Experiment: TP_TRANSPORTER: inhibition of Carnitine uptake (Carnitine: 0.010? uM, MPP+: 100 uM) in OCTN2-expressing HEK293 cells
Format: functional, cell-based
Design: scale not given: the % may be the effect or the level left
Settings: HEK293 cells that express OCTN2, probe Carnitine, read-out: Activity
experimental_readout: activity at 100 µM (%)
Just the number in %, nothing appended.

// C[n+]1ccc(-c2ccccc2)cc1 : activity at 100 µM value = 69.8

---

Molecular target: OCTN2 (organic cation/carnitine transporter 2) (Homo sapiens, UniProt O76082)
Test: TP_TRANSPORTER: inhibition of Carnitine uptake (Carnitine: 0.010? uM, Procainamide: 500 uM) in OCTN2-expressing HEK293 cells
Assay type: functional, cell-based
Set-up: scale not given: the % may be the effect or the level left
Conditions: HEK293 cells that express OCTN2, probe Carnitine, read-out: Activity
experimental_readout: activity at 500 µM (%)
Please state the figure in %; there is no need to write the unit.

The compound CCN(CC)CCNC(=O)c1ccc(N)cc1 [PROCAINAMIDE] showed activity at 500 µM equal to 65.8

---

Target: OCTN2 (organic cation/carnitine transporter 2) (Homo sapiens, UniProt O76082)
Experiment: TP_TRANSPORTER: inhibition of Carnitine uptake (Carnitine: 0.010? uM, LFLX: 500 uM) in OCTN2-expressing HEK293 cells
Format: functional, cell-based
Design: scale not given: the % may be the effect or the level left
Conditions: HEK293 cells that express OCTN2, probe Carnitine, read-out: Activity
experimental_readout: activity at 500 µM (%)
Provide the reading as a plain figure in %.

So the reported activity at 500 µM for CCn1cc(C(=O)O)c(=O)c2cc(F)c(N3CCNC(C)C3)c(F)c21 (stereo unspecified) [LOMEFLOXACIN] , on OCTN2 (organic cation/carnitine transporter 2) (Homo sapiens, UniProt O76082), turned out to be 88.6

---

Target: OCTN2 (organic cation/carnitine transporter 2) (Homo sapiens, UniProt O76082)
Sequence (O76082 whole entry): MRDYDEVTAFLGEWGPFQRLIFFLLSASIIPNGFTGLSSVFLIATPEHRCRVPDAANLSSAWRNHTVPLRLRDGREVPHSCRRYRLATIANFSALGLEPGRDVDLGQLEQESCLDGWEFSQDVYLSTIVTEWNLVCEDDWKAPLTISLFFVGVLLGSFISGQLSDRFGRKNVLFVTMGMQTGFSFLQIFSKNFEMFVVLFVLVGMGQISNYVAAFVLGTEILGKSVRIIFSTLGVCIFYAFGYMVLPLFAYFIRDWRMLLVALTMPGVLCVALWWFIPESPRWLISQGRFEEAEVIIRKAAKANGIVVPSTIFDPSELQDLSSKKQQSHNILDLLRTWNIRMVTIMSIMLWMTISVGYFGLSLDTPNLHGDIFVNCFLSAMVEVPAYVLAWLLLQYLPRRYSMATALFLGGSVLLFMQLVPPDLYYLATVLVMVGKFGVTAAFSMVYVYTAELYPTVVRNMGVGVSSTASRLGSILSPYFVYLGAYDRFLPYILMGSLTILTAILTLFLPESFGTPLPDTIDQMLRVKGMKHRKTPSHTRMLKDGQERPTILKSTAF
Test: TP_TRANSPORTER: inhibition of Carnitine uptake (Carnitine: 0.010? uM, Aldosterone: 500 uM) in OCTN2-expressing HEK293 cells
Type: functional, cell-based
Parameters: scale not given: the % may be the effect or the level left
Details: HEK293 cells that express OCTN2, probe Carnitine, read-out: Activity
experimental_readout: activity at 500 µM (%)
Give a bare numeral; the unit % is implied.

Measured activity at 500 µM, C[C@]12CCC(=O)C=C1CC[C@@H]1[C@@H]2[C@@H](O)C[C@]2(C=O)[C@@H](C(=O)CO)CC[C@@H]12 : 37.1
